Exercise: for every item that follows, state its recorded pIC50.
System: Phospho-Rb Ser807/811 in OVCAR3 cells
Experiment: OVCAR3 Phospho-Rb Ser807/811 HTRF assay
Assay type: cell-based
Conditions: Homo sapiens, OVCAR-3, 1 h, OVCAR3 cells, Phospho-Rb Ser807/811 HTRF, 1 hour incubation; read-out: pRb-OVCAR3 IC50
Note on units: pIC50 is unitless, being -log10 of a concentration expressed in mol/L.

Problem: Quick one: pIC50 of COCc1cc(O)c(C=O)c(OCC(=O)Nc2cc([C@H]3CC[C@@H](OC(=O)NC(C)C)C3)[nH]n2)c1 [Compound 72] ?
Result: 6.32

Problem: Same for COc1cc(O)c(C=O)c(OCC(=O)Nc2cc([C@H]3CC[C@@H](OC(=O)N4CC[C@@H]5C[C@@H]54)C3)[nH]n2)c1 [Compound 236]
Result: 7.49

Problem: What do you get for COc1cc(O)c(C=O)c(OCC(=O)Nc2cc([C@H]3CC[C@@H](OC(=O)N4CC(N(C)C)C4)C3)[nH]n2)c1 [Compound 187] ?
Result: 7.19

Problem: For COc1cc(O)c(C=O)c(OCC(=O)Nc2cc([C@H]3CC[C@@H](OC(=O)N4CC5CC5C4)C3)[nH]n2)c1 (stereo partly shown) [Compound 237] then?
Result: 7.25

Problem: CC(C)NC(=O)O[C@@H]1CC[C@H](c2cc(NC(=O)C3CCN(c4cccc(O)c4C=O)CC3)n[nH]2)C1 [Compound 92] ?
Result: 5.62

Problem: Then COc1cc(O)c(C=O)c(OCC(=O)Nc2cc([C@H]3CC[C@@H](OC(=O)NC4(CF)CC4)C3)[nH]n2)c1 [Compound 136] ?
Result: 7.77

Problem: Then what about the compound COc1cc(O)c(C=O)c(OCC(=O)Nc2cc([C@H]3CC[C@@H](OC(=O)NC4COC4)C3)[nH]n2)c1 [Compound 149] ?
Result: 6.41
